- Tested on: PC-3 prostate cancer cells (PSMA-negative)
- experiment_notes: Cell viability assay (MTT), dark and blue light
- Format: cell-based, Human
- conditions: blue light 458 nm
assay_readout: SI (vs NIH-3T3) PC-3 Blue
Reply with the value as a number alone.

For reference, reported SI (vs NIH-3T3) PC-3 Blue for Cc1ccc2[c](c1)[Ir-3]13([c]4cc(C)ccc4-c4cccc[n+]41)([c]1n(CCC(=O)NCCCC[C@H](NC(=O)N[C@@H](CCC(=O)O)C(=O)O)C(=O)O)cc[n+]1-c1cccc[n+]13)[n+]1ccccc1-2.F[P-](F)(F)(F)(F)F [III-b] stands at 1.0

###

- experiment_notes: Lipophilicity: octanol-water partition coefficient, shake-flask method
- conditions: n-octanol/water, shake-flask, mean of at least three determinations
assay_readout: Log P

- compound: "F[P-](F)(F)(F)(F)F.O=C(O)CC[C@H](NC(=O)N[C@@H](CCCCNC(=O)CCn1cc[n+]2[c]1[Ir-3]13([c]4ccccc4-c4c5ccccc5cc[n+]41)([c]1ccccc1-c1c4ccccc4cc[n+]13)[n+]1ccccc1-2)C(=O)O)C(=O)O [III-h]"
  Log P: "0.88 ± 0.02"
- compound: "COC(=O)c1cccc2[c]1[Ir-3]13([c]4c(C(=O)OC)cccc4-c4cccc[n+]41)([c]1n(CCCNC(=O)CCCC[C@@H]4SC[C@@H]5NC(=O)N[C@@H]54)cc[n+]1-c1cccc[n+]13)[n+]1ccccc1-2.F[P-](F)(F)(F)(F)F [I-d]"
  Log P: "−0.10 ± 0.01"
- compound: "F[P-](F)(F)(F)(F)F.O=C(CCCC[C@@H]1SC[C@@H]2NC(=O)N[C@@H]21)NCCCn1cc[n+]2[c]1[Ir-3]13([c]4ccccc4-c4c5ccccc5cc[n+]41)([c]1ccccc1-c1c4ccccc4cc[n+]13)[n+]1ccccc1-2 [I-h]"
  Log P: "0.87 ± 0.02"

Turning now to a further record.
According to the records, this compound Cc1ccc2[c](c1)[Ir-3]13([c]4cc(C)ccc4-c4cccc[n+]41)([c]1n(CCCNC(=O)[c-]4cccc4)cc[n+]1-c1cccc[n+]13)[n+]1ccccc1-2.F[P-](F)(F)(F)(F)F.[Fe+2].c1cc[cH-]c1 [IV-b] displays Log P of 1.63 ± 0.02

###

# SI (vs NIH-3T3) C4-2b Blue per record follows
- Tested on: C4-2B prostate cancer cells (PSMA-positive)
- experiment_notes: Cell viability assay (MTT), dark and blue light
- Format: cell-based, Human
- conditions: blue light 458 nm
# respond with the number and nothing more

- compound: "F[P-](F)(F)(F)(F)F.O=C(O)CC[C@H](NC(=O)N[C@@H](CCCCNC(=O)CCn1cc[n+]2[c]1[Ir-3]13([c]4ccccc4-c4sc5ccccc5[n+]41)([c]1ccccc1-c1sc4ccccc4[n+]13)[n+]1ccccc1-2)C(=O)O)C(=O)O [III-k]"
  SI (vs NIH-3T3) C4-2b Blue: 73.9

Observed SI (vs NIH-3T3) C4-2b Blue on C4-2B prostate cancer cells (PSMA-positive), entry F[P-](F)(F)(F)(F)F.O=C(O)CC[C@H](NC(=O)N[C@@H](CCCCNC(=O)CCn1cc[n+]2[c]1[Ir-3]13([c]4c(sc5ccccc45)-c4cccc[n+]41)([c]1c(sc4ccccc14)-c1cccc[n+]13)[n+]1ccccc1-2)C(=O)O)C(=O)O [III-j] , equals 20.7

Note to self: SI (vs NIH-3T3) C4-2b Blue of F[P-](F)(F)(F)(F)F.O=C(O)CC[C@H](NC(=O)N[C@@H](CCCCNC(=O)CCn1cc[n+]2[c]1[Ir-3]13([c]4ccccc4-c4c5ccccc5cc[n+]41)([c]1ccccc1-c1c4ccccc4cc[n+]13)[n+]1ccccc1-2)C(=O)O)C(=O)O [III-h] with C4-2B prostate cancer cells (PSMA-positive) was 61.9

The observed SI (vs NIH-3T3) C4-2b Blue for F[P-](F)(F)(F)(F)F.O=C(O)CC[C@H](NC(=O)N[C@@H](CCCCNC(=O)CCn1cc[n+]2[c]1[Ir-3]13([c]4cccc5ccc6ccc[n+]1c6c45)([c]1cccc4ccc5ccc[n+]3c5c14)[n+]1ccccc1-2)C(=O)O)C(=O)O [III-i] when tested with C4-2B prostate cancer cells (PSMA-positive) stands at 20.7
